target: Serine/threonine-protein kinase B-raf (Homo sapiens, UniProt P15056, V600E); test: Inhibition of B-Raf V600E mutant
Sequence (P15056 2-766 V600E limits assumed): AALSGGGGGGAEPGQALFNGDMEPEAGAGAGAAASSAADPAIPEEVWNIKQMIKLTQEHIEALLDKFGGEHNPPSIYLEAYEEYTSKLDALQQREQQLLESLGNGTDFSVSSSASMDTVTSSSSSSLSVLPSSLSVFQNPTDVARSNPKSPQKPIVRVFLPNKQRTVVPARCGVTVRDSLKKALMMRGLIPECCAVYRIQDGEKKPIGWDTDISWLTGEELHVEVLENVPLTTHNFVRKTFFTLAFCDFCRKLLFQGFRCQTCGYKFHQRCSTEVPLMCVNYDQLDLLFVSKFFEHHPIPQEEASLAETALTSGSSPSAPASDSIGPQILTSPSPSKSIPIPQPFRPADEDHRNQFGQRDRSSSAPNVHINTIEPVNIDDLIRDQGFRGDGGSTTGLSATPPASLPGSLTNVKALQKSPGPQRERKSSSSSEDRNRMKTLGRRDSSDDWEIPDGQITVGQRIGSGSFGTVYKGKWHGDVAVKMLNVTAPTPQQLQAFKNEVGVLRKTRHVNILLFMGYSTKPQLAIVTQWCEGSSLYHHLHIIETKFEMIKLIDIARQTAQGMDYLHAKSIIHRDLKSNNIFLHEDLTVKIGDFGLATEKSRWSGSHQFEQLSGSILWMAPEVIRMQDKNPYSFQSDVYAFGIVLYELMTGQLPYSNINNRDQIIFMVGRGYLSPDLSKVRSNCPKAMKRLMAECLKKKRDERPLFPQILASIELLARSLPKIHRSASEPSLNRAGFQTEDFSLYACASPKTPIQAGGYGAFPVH
Observation type: IC50 (nM)

Example cases with answers are listed next.
Substance smiles	IC50 / nM
O/N=C1/CCc2cc(Nc3c(-c4cccnc4)sc4cnccc34)ccc21	3
O/N=C1/CCc2cc(Nc3c(-c4cccnc4)nc4cnccn34)ccc21	47
CN(C)C(=O)c1oc2cnccc2c1Nc1ccc2c(c1)CC/C2=N\O	5
Clc1ccc(Nc2c(-c3ccccc3)nc3cnccn23)cc1	570
CCOC(=O)c1nc2cnccn2c1Nc1ccc2c(c1)CC/C2=N\O	16
Cc1nc2cnccn2c1Nc1ccc(Cl)cc1	1200
CN(C)C(=O)c1sc2cnccc2c1Nc1ccc2c(c1)CC/C2=N/O	40

(P) CN(C)CCNC(=O)c1oc2cnccc2c1Nc1ccc2c(c1)CC/C2=N\O
(Q) O/N=C1/CCc2cc(Nc3c(-c4ccco4)nc4cnccn34)ccc21
In terms of reported IC50, does P or Q have the smaller number? // respond with label for picked entry
P

###

Sequence of the target: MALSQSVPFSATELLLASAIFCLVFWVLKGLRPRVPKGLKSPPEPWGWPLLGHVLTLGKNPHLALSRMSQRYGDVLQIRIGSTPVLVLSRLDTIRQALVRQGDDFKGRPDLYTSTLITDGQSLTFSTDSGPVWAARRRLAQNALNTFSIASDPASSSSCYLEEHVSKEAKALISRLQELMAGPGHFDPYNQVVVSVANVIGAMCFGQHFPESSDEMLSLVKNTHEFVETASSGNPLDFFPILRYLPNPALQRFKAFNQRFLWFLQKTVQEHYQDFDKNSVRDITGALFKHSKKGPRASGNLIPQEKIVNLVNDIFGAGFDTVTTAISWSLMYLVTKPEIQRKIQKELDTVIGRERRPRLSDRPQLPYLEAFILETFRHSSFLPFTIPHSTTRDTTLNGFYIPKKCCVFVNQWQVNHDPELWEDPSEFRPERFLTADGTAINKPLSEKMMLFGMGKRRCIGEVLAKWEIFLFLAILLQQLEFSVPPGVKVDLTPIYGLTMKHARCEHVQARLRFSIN
Observation type: IC50 (nM)
Give the number; nM is assumed, so skip it.

Item under review: CCOC(=O)c1sc2cnccc2c1Nc1ccc2c(c1)CC/C2=N/O . Reported IC50?
616

###

target: Serine/threonine-protein kinase B-raf (Homo sapiens, UniProt P15056, V600E); assay: Inhibition of B-Raf V600E mutant
Observation type: IC50 (nM)

Example cases with answers are listed next.
Substance smiles	IC50, nM
Oc1cc(-c2nc(-c3ccccc3)[nH]c2-c2ccncc2)ccc1Cl	10
Cc1ccc(-c2oc3cnccc3c2Nc2ccc3c(c2)CC/C3=N\O)cc1	3

(P) CCOC(=O)c1sc2cnccc2c1Nc1ccc2c(c1)CC/C2=N/O
(Q) O/N=C1\CCc2cc(Nc3c(-c4ncccn4)oc4cnccc34)ccc21
(R) CN(C)CCNC(=O)c1sc2cnccc2c1Nc1ccc2c(c1)CC/C2=N/O
List the 3 entries from lowest IC50 to highest IC50 value. Give your ranking as a list of the labels in the requested order.
Q, P, R

###

target: Serine/threonine-protein kinase B-raf (Homo sapiens, UniProt P15056, V600E); assay: Inhibition of B-Raf V600E mutant
pIC50: −log10 of the molar value.
Observation type: pIC50

Substance smiles	pIC50
O/N=C1/CCc2cc(Nc3c(-c4ccccc4)nc4cnccn34)ccc21	7.46

(P) O/N=C1/CCc2cc(Nc3c(-c4ccccc4)sc4cnccc34)ccc21
(Q) NCc1ccc(Nc2c(-c3ccccc3)nc3cnccn23)cc1
(R) O/N=C1/CCc2cc(Nc3csc4cnccc34)ccc21
List the 3 entries from lowest pIC50 to highest pIC50 value. Give your ranking as a list of the labels in the requested order.
Q, R, P

###

biological target: Serine/threonine-protein kinase B-raf (Homo sapiens, UniProt P15056, V600E); assay: Inhibition of B-Raf V600E mutant assessed as inhibition of phosphorylated ERK production by cell based assay
Observation type: IC50 (nM)

Example cases with answers are listed next.
Substance smiles	Assay result
CCCC(=O)c1sc2cnccc2c1Nc1ccc2c(c1)CC/C2=N/O	140
CCOC(=O)c1oc2cnccc2c1Nc1ccc2c(c1)CC/C2=N/O	30
O/N=C1/CCc2cc(Nc3c(-c4ccccc4)sc4cnccc34)ccc21	1500
CCOC(=O)c1nc2cnccn2c1Nc1ccc2c(c1)CC/C2=N\O	3100
Cc1ccc(-c2oc3cnccc3c2Nc2ccc3c(c2)CC/C3=N\O)cc1	2000
O/N=C1/CCc2cc(Nc3c(-c4ccccc4)nc4cnccn34)ccc21	19000
CN(C)C(=O)c1sc2cnccc2c1Nc1ccc2c(c1)CC/C2=N/O	5800
CN(C)CCNC(=O)c1oc2cnccc2c1Nc1ccc2c(c1)CC/C2=N\O	40

(I) O/N=C1/CCc2cc(Nc3c(-c4cccnc4)sc4cnccc34)ccc21
(II) Clc1ccc(Nc2c(-c3ccccc3)nc3cnccn23)cc1
(III) O/N=C1/CCc2cc(Nc3csc4cnccc34)ccc21
List the 3 entries from lowest IC50 to highest IC50 value. Give your ranking as a list of the labels in the requested order.
I, III, II
(I: 170 nM, III: 7300 nM, II: 76000 nM)

(P) O/N=C1\CCc2cc(Nc3c(-c4ccccn4)oc4cnccc34)ccc21
(Q) O/N=C1\CCc2cc(Nc3c(-c4ncccn4)oc4cnccc34)ccc21
(R) CCOC(=O)c1sc2cnccc2c1Nc1ccc2c(c1)CC/C2=N/O
List the 3 entries from lowest IC50 to highest IC50 value. Give your ranking as a list of the labels in the requested order.
Q, P, R

(1) Cc1cc(-c2oc3cnccc3c2Nc2ccc3c(c2)CC/C3=N\O)no1
(2) O/N=C1/CCc2cc(Nc3c(-c4cccnc4)nc4cnccn34)ccc21
(3) O/N=C1/CCc2cc(Nc3c(-c4ccco4)nc4cnccn34)ccc21
(4) CN(C)CCNC(=O)c1sc2cnccc2c1Nc1ccc2c(c1)CC/C2=N/O
List the 4 entries from lowest IC50 to highest IC50 value. Give your ranking as a list of the labels in the requested order.
1, 3, 4, 2

(I) CN(C)C(=O)c1oc2cnccc2c1Nc1ccc2c(c1)CC/C2=N\O
(II) O/N=C1/CCc2cc(Nc3c(-c4cccnc4)oc4cnccc34)ccc21
Thinking about recorded IC50 values, which is higher, I or II ? // respond with label for picked entry
II

###

test: Permeability of the compound across human Caco2 cells; type: ADME, cell-based; settings: caco-2, read-out: permeability
Observation type: Papp

Item under review: O/N=C1\CCc2cc(Nc3c(-c4ncccn4)oc4cnccc34)ccc21 . Reported Papp?
> 8 ×10⁻⁶ cm/s

Please give the result for CN(C)CCNC(=O)c1oc2cnccc2c1Nc1ccc2c(c1)CC/C2=N\O too.
> 8 ×10⁻⁶ cm/s

###

biological target: Cytochrome P450 2C19 (Homo sapiens, UniProt P33261)
Sequence (P33261 whole entry): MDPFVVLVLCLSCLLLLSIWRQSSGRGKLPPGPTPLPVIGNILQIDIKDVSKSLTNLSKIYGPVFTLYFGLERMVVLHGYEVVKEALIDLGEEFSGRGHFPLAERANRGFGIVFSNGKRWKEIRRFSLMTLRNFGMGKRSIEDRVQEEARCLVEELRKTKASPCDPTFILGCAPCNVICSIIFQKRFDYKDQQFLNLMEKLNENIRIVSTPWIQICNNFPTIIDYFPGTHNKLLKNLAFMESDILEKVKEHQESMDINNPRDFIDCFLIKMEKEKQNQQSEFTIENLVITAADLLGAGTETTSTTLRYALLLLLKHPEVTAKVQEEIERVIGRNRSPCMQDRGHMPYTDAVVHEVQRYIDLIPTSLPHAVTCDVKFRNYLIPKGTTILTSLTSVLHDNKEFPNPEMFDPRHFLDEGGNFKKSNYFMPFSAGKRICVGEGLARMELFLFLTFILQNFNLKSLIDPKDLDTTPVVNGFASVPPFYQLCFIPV
Observation type: pIC50
Lab note — pIC50 values are minus log10 of concentrations in M.

Item under review: CCOC(=O)c1oc2cnccc2c1Nc1ccc2c(c1)CC/C2=N/O . Reported pIC50?
5.93

###

assay: Aqueous solubility of the compound at pH 6.5; format: physicochemical
Observation type: solubility

Item under review: CN(C)CCNC(=O)c1oc2cnccc2c1Nc1ccc2c(c1)CC/C2=N\O . Reported solubility?
> 1000 µg/mL
